FYI, the data here is from paper PMC10096449.

System: Vero-E6 cells
Condition set: single experiment (duplicate experiments listed)
Value type: CC50 (nM)
One number for each entry, in nM.

| Molecule | Measurement unit | CC50 |
| --- | --- | --- |
| O=C1N[C@H]2[C@H](O)[C@H](O)[C@@H](O)[C@H](O)[C@@H]2c2cc3c(c(O)c21)OCO3 [Compound 10, pancratistatin] | nM | 122 |

Now for the molecule whose CC50 we want.
Query: State measured CC50 of the molecule O[C@H]1[C@H]2c3cc4c(cc3CN3CCC(=C[C@@H]1O)[C@H]23)OCO4 [Compound 6, lycorine] with Vero-E6 cells.
Reply: 1140
